Assay system: Gal(a1-3)Gal(b1-3)GlcNAc(b1-2)Man(a1-3)[Gal(a1-3)Gal(b1-3)GlcNAc(b1-2)Man(a1-6)]Man(b1-4)GlcNAc(b1-4)GlcNAc
Experiment notes: glycan array binding signal (z-score within array); higher = stronger binding
Cond: glycan notation: IUPAC condensed, linker removed
The sample as a whole holds a higher share of the strongest signals than the screen did.

Binder	glycan array binding signal (z-score)
HPL (Tachypleus tridentatus) (protein) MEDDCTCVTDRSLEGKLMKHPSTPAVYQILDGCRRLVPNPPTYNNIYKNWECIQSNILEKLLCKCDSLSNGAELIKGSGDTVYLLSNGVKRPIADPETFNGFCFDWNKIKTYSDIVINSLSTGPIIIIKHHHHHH	3.2
Intelectin-1a (Mus musculus) (protein) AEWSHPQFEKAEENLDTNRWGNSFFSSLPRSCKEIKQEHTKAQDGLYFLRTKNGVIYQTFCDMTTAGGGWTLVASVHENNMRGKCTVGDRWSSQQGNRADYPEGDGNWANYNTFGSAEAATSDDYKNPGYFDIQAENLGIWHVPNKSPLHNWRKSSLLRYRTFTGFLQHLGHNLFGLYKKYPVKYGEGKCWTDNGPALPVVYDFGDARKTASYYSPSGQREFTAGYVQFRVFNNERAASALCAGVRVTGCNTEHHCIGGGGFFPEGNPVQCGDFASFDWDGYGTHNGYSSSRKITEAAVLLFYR	2.64
rCnSL-proB (Clitocybe nebularis) (protein) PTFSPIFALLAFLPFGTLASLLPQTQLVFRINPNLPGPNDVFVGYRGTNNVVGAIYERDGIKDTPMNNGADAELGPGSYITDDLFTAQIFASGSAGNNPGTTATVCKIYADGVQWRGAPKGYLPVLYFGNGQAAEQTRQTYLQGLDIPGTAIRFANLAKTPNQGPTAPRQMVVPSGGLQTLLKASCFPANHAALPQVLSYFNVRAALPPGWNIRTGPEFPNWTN	-0.093
